Assay: Plasma total and free testosterone after sublingual androgen intake in two male patients
Details: human, plasma, other: sublingual, 5 mg, Total T, Patient 1; blood plasma 15 minutes after sublingual intake; 5 mg T, or 5 mg T + 5 mg DHT
measurement_type: concentration at 15 min
Answers without a unit are incomplete; give the number and then its unit.

Query string: Could you share which concentration at 15 min value was measured for C[C@]12CC[C@H]3[C@@H](CCC4=CC(=O)CC[C@@]43C)[C@@H]1CC[C@@H]2O [T, 17-β-hydroxyandrost-4-en-3-one] ?
Result string: 0.0287 µM
